Target: human VEGF-R2 receptor (KDR) (Homo sapiens)
Construct: expressed in transfected cells
Sequence (P35968 20-1356): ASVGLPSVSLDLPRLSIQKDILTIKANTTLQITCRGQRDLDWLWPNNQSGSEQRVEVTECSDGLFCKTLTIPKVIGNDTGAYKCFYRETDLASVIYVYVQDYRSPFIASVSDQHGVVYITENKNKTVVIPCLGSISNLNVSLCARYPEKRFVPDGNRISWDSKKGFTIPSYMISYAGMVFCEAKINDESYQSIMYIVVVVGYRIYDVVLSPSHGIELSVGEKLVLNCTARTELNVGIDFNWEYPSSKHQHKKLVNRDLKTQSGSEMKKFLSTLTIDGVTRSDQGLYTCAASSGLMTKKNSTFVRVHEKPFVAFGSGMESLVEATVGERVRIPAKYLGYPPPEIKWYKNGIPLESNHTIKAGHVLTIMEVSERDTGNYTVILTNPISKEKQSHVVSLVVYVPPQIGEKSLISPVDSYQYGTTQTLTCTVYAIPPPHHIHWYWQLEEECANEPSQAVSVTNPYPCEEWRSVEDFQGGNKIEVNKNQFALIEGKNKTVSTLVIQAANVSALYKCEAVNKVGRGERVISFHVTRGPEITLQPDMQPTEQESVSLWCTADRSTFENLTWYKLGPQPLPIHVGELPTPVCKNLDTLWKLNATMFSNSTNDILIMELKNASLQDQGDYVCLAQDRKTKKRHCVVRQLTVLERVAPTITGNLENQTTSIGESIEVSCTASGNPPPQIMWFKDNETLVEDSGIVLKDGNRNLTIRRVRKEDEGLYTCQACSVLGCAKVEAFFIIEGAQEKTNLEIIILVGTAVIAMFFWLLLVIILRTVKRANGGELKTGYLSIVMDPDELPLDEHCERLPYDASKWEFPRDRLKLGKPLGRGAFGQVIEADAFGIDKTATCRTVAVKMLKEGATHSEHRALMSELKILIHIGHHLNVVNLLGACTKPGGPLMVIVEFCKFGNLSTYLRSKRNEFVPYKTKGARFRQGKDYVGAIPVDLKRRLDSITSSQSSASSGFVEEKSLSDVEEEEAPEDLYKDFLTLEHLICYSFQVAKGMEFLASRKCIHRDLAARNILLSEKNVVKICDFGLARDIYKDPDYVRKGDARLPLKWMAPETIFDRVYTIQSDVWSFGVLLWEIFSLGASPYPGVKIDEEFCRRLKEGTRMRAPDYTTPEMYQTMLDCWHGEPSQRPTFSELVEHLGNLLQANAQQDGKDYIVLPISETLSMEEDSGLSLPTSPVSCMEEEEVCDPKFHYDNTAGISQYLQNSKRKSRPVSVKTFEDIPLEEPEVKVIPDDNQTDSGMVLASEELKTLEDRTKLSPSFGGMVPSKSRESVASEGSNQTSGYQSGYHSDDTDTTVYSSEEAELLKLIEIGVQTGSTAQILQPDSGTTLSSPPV
Assay: Inhibition of VEGF-induced VEGF-R2 (KDR) autophosphorylation in transfected CHO cells, sandwich ELISA
Type: cell-based
Settings: % inhibition at 10 μM
Protocol: The inhibition of VEGF-induced receptor autophosphorylation can be confirmed with a further in vitro experiments in cells such as transfected CHO cells, which permanently express human VEGF-R2 receptor (KDR), are seeded in complete culture medium (with 10% fetal calf serum=FCS) in 6-well cell-culture plates and incubated at 37° C. under 5% CO2 until they show about 80% confluency. […]
readout_name: KDR trans (% at 10 μM) (%)
Numbers only; they are read as %.

# annotated cases, reported KDR trans (% at 10 μM) shown
* CCc1ccc(NC(=O)N(C)c2ccc(Oc3ccncc3)cc2)cc1 | 99
* CN(C(=O)Nc1cccc(C(F)(F)F)c1)c1ccc(Oc2ccncc2)cc1 | 100
* CCCc1ccc(NC(=O)N(C)c2ccc(Oc3ccncc3)cc2)cc1 | 97
* CCCc1ccc(NC(=O)Nc2ccc(Oc3ccncc3)cc2)cc1 | 25
* CCc1ccc(NC(=O)Nc2ccc(Oc3ccncc3)cc2)cc1 | 100

Q: Which KDR trans (% at 10 μM) reading was recorded for the compound CCCc1ccc(NC(=O)Nc2ccc(Cc3ccncc3)cc2)cc1 ?
Ans: 97

Q: Which KDR trans (% at 10 μM) reading was recorded for the compound Cc1ccc(NC(=O)N(C)c2ccc(Oc3ccncc3)cc2)cc1 ?
Ans: 78

Q: Which KDR trans (% at 10 μM) reading was recorded for the compound CCCc1ccc(NC(=O)Cc2ccc(Oc3ccncc3)cc2)cc1 ?
Ans: 99

Q: Which KDR trans (% at 10 μM) reading was recorded for the compound Cc1cc(Oc2ccc(NC(=O)Nc3cccc(C(F)(F)F)c3)cc2)ccn1 ?
Ans: 98

---

molecular target: c-Abl kinase (His-tagged kinase domain of c-Abl) (Homo sapiens); construct: The His-tagged kinase domain of c-Abl is cloned and expressed in the baculovirus/Sf9 system; His tag; made in house; host or cells: Sf9 insect cells (baculovirus); assay: c-Abl protein-tyrosine kinase in vitro enzyme filter binding assay; type: biochemical; conditions: % inhibition at 10 μM
readout_name: c-Abl (% at 10 μM) (%)
Numbers only; they are read as %.

- Cc1ccc(NC(=O)Nc2ccc(Cc3ccncc3)cc2)cc1 [Example 14]: 26

Q: Which c-Abl (% at 10 μM) reading was recorded for the compound CCc1ccc(NC(=O)Nc2ccc(Oc3ccncc3)cc2)cc1 [Example 1] ?
Ans: 62

Q: Which c-Abl (% at 10 μM) reading was recorded for the compound O=C(Nc1cccc(C(F)(F)F)c1)N1CCCc2cc(Oc3ccncc3)ccc21 [Example 20] ?
Ans: 84

Q: Which c-Abl (% at 10 μM) reading was recorded for the compound O=C(Nc1ccc(Oc2cc(Cl)ncn2)cc1)Nc1cccc(C(F)(F)F)c1 [Example 21] ?
Ans: 70

Q: Which c-Abl (% at 10 μM) reading was recorded for the compound Cc1cc(Oc2ccc(NC(=O)Nc3cccc(C(F)(F)F)c3)cc2)ccn1 [Example 30] ?
Ans: 100

Q: Which c-Abl (% at 10 μM) reading was recorded for the compound O=C(Nc1ccc(Oc2ccncc2)cc1)Nc1ccc(OCC(F)(F)F)c(C(F)(F)F)c1 [Example 10] ?
Ans: 98

---

target: c-Abl kinase (His-tagged kinase domain of c-Abl) (Homo sapiens, UniProt P00519); construct: The His-tagged kinase domain of c-Abl is cloned and expressed in the baculovirus/Sf9 system; His tag; made in house; host or cells: Sf9 insect cells (baculovirus); test: c-Abl protein-tyrosine kinase in vitro enzyme filter binding assay; format: biochemical; details: % inhibition at 10 μM
Sequence (P00519 242-493 limits assumed): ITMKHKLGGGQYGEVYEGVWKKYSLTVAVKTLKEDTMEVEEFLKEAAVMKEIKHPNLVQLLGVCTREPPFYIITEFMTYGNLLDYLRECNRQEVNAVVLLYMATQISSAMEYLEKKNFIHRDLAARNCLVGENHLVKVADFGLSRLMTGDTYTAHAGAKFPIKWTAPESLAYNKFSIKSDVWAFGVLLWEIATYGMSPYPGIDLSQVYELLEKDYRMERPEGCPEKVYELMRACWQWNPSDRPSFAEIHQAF
readout_name: c-Abl (% at 10 μM)

• CCCc1ccc(NC(=O)Nc2ccc(Cc3ccncc3)cc2)cc1 = 33%
• CCc1ccc(NC(=O)Cc2ccc(Oc3ccncc3)cc2)cc1 = 66%

Q: Which c-Abl (% at 10 μM) reading was recorded for the molecule COc1cc(NC(=O)Nc2ccc(Oc3ccncc3)cc2)cc(C(F)(F)F)c1 ?
Ans: 95%
